system: Parabacteroides distasonis; test: growth AUC relative to DMSO control (median of replicates) (fraction); higher = more growth (less inhibition), active = hit call of the paper; conditions: 20 µM; 24 h;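 active = AUC reduced over 20% with Padj below 0.05 in at least 2 of 3 replicates; inactive = otherwise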
Outcome codes: TRUE (active), FALSE (inactive)

* NCCO.O=C(O)c1nc(Cl)ccc1Cl | FALSE
* CCOP(=S)(OCC)SCCS(=O)CC (stereo unspecified) | FALSE
* CNC(=O)c1cc(Cl)cc(C)c1NC(=O)c1cc(Br)nn1-c1ncccc1Cl | FALSE
* C=CC(N)=O | FALSE
* COc1nc(C)nc(NC(=O)NS(=O)(=O)c2ccccc2Cl)n1 | FALSE
* O=c1[nH]c2c(c(=O)n1C1CCCCC1)CCC2 | FALSE
* O=C(NC(=O)c1c(F)cccc1F)Nc1cc(Cl)c(Oc2ncc(C(F)(F)F)cc2Cl)c(Cl)c1 | FALSE
* Cc1cc(Cl)ccc1O | FALSE
* COC(=O)c1sccc1S(=O)(=O)NC(=O)Nc1nc(C)nc(OC)n1 | FALSE
* ClC1=C(Cl)[C@]2(Cl)C3CC=CC3[C@@]1(Cl)C2(Cl)Cl (stereo partly specified) | FALSE
* N#Cc1sc2c(=O)c3ccccc3c(=O)c=2sc1C#N | FALSE
* CC(C)(C)C(O)(CCc1ccc(Cl)cc1)Cn1cncn1 (stereo unspecified) | FALSE
* COC(=O)C(C)Oc1ccc(Oc2ccc(Cl)cc2Cl)cc1 (stereo unspecified) | FALSE
* O=[N+]([O-])c1ccccc1 | FALSE
* Nc1cc(Cl)ccc1Cl | FALSE
* CP(=O)(O)CCC(N)C(=O)[O-].[NH4+] (stereo unspecified) | FALSE
* O=[N+]([O-])c1ccc(Oc2ccc(C(F)(F)F)cc2[N+](=O)[O-])cc1 | FALSE
* CCOC(=O)CC(SP(=O)(OC)OC)C(=O)OCC (stereo unspecified) | FALSE
* O=S1(=O)OCC2C(CO1)C1(Cl)C(Cl)=C(Cl)C2(Cl)C1(Cl)Cl (stereo unspecified) | FALSE
* CCOc1ccc(C(C)(C)COCc2cccc(Oc3ccccc3)c2)cc1 | FALSE
* CCOC(=O)C(SP(=S)(OC)OC)c1ccccc1 (stereo unspecified) | TRUE

###

system: Streptococcus salivarius; assay: growth AUC relative to DMSO control (median of replicates) (fraction); higher = more growth (less inhibition), active = hit call of the paper; details: 20 µM; 24 h
OUTCOME MEASURE: growth AUC

- CCOC(=O)OC1=C(c2cc(C)ccc2C)C(=O)NC12CCC(OC)CC2 (stereo not given): 0.987
- COP(N)(=O)SC (stereo not given): 0.996
- O=C(O)c1nc(Cl)ccc1Cl: 1.02
- C1=Cc2cccc3cccc1c23: 0.98
- Cc1cccc2sc3nncn3c12: 1.02

###

test system: Roseburia intestinalis; assay: growth AUC relative to DMSO control (median of replicates) (fraction); higher = more growth (less inhibition), active = hit call of the paper; settings: 20 µM; 24 h
OUTCOME MEASURE: growth AUC

• CCOC(=O)CCN(SN(C)C(=O)Oc1cccc2c1OC(C)(C)C2)C(C)C = 1.02
• Nc1c(Cl)c(Cl)c(Cl)c(Cl)c1Cl = 0.986
• CNC(=O)Oc1cccc2c1OC(C)(C)C2O (stereo not drawn) = 0.979
• O=C(O)c1ccccc1C(=O)Nc1cccc2ccccc12 = 0.993
• CCC(C)(CC)c1cc(NC(=O)c2c(OC)cccc2OC)on1 = 0.963
• Clc1ccc(Cl)cc1 = 1.01
• CN(C)C(=O)Nc1ccc(Cl)cc1 = 0.979
• CCc1cnc(C2=NC(C)(C(C)C)C(=O)N2)c(C(=O)O)c1 (stereo not drawn) = 1.02
• O=NN(CCO)CCO = 0.971
• CNC(=O)Oc1ccccc1OC(C)C = 1.01
• COC(=O)NCc1cc(/C(C)=N\OCc2cccc(C)n2)ccc1Cl = 1.01
• Oc1c(Cl)c(Cl)cc(Cl)c1Cl = 0.978
• O=C(Nc1ccccc1)Nc1cnns1 = 0.918
• CCOC(=O)c1ccccc1S(=O)(=O)NC(=O)Nc1nc(Cl)cc(OC)n1 = 1.01
• CCOc1nc(NC)nc(NC(=O)NS(=O)(=O)c2ccccc2C(=O)OC)n1 = 0.992
• Oc1ccc(Cl)cc1Cl = 0.907
• COP(=S)(OC)Oc1cc(Cl)c(Br)cc1Cl = 1.03
• C=C(C)[C@H]1Cc2c(ccc3c2O[C@@H]2COc4cc(OC)c(OC)cc4[C@@H]2C3=O)O1 = 0.935

###

test system: Escherichia coli IAI1; assay: growth AUC relative to DMSO control (median of replicates) (fraction); higher = more growth (less inhibition), active = hit call of the paper; details: 20 µM; 24 h
As shown below, each of these compounds has a reported growth AUC value.
OUTCOME MEASURE: growth AUC

- CC(Cc1ccc(C(C)(C)C)cc1)CN1C[C@@H](C)O[C@@H](C)C1 (stereo not given in full): 1.06
- CNC(=O)CSP(=S)(OC)OC: 0.959
- CC(COc1ccc(Oc2ccccc2)cc1)Oc1ccccn1 (stereo not given): 0.968
- COC(=O)Nc1cccc(OC(=O)Nc2cccc(C)c2)c1: 0.966
- CC1(C)[C@H](C(=O)O[C@H](C#N)c2cccc(Oc3ccccc3)c2)[C@@H]1/C=C\C(=O)OC(C(F)(F)F)C(F)(F)F: 1.1
- CC1(C)C(C=C(Cl)Cl)C1C(=O)OC(C#N)c1cccc(Oc2ccccc2)c1 (mixture of isomers): 0.987
- C[C@H]1[C@H](c2ccc(Cl)cc2)SC(=O)N1C(=O)NC1CCCCC1: 0.996
- O.[Br-].[Br-].c1cc[n+]2c(c1)-c1cccc[n+]1CC2: 0.95
- ClC1=C(Cl)C2(Cl)C3C(Cl)C=CC3C1(Cl)C2(Cl)Cl (stereo not given): 1
- O=[N+]([O-])c1cc(Cl)ccc1Cl: 0.979

###

system: Bacteroides stercoris; assay: growth AUC relative to DMSO control (median of replicates) (fraction); higher = more growth (less inhibition), active = hit call of the paper; conditions: 20 µM; 24 h;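 active = AUC reduced over 20% with Padj below 0.05 in at least 2 of 3 replicates; inactive = otherwise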
Classes used: active, inactive

* COP(=S)(OC)Oc1ccc(S(C)(=O)=O)c(C)c1 | inactive
* O=[N+]([O-])c1c(Cl)c(Cl)c(Cl)c(Cl)c1Cl | inactive
* CC(C)OC(=O)C(C(=O)OC(C)C)=C1SCCS1 | inactive
* O=c1oc2ccccc2c(O)c1C1CC(c2ccc(-c3ccc(Br)cc3)cc2)Cc2ccccc21 (centres undefined) | active

###

system: Parabacteroides merdae; assay: growth AUC relative to DMSO control (median of replicates) (fraction); higher = more growth (less inhibition), active = hit call of the paper; details: 20 µM; 24 h
OUTCOME MEASURE: growth AUC

- Cc1[nH]c(=O)n(C(C)(C)C)c(=O)c1Cl: 0.995
- CC(C)c1ccc(NC(=O)N(C)C)cc1: 0.935
- CNC(=O)O/N=C/C(C)(C)SC: 0.961
- CCOC(=O)CC(SP(=O)(OC)OC)C(=O)OCC (stereo unspecified): 0.975
- CNC(=O)ON=C(CSC)C(C)(C)C: 1.02
- CNC(=O)Oc1cc(C)c(SC)c(C)c1: 0.912
- CCCN(CC)CC1COC2(CCC(C(C)(C)C)CC2)O1 (stereo unspecified): 0.965
- O=C1OCC2C1C1(Cl)C(Cl)=C(Cl)C2(Cl)C1(Cl)Cl (stereo unspecified): 0.987
- COC(=O)C(C)N(C(=O)Cc1ccccc1)c1c(C)cccc1C (stereo unspecified): 0.944
- Clc1ccc(C(c2ccc(Cl)cc2)C(Cl)Cl)cc1: 0.918
- CCCN(CCC)c1c([N+](=O)[O-])cc(S(N)(=O)=O)cc1[N+](=O)[O-]: 0.997
- CCCCNC(=O)n1c(NC(=O)OC)nc2ccccc21: 0.965
- CC(=NCc1ccc(Cl)nc1)NC#N: 0.968
- CN(C)C1CSSSC1.O=C(O)C(=O)O: 1.02
- O=C1C(Cl)=C(Cl)C(=O)C(Cl)=C1Cl: 0.927
- CC1(C)C(/C=C(\Cl)c2ccc(Cl)cc2)C1C(=O)OC(C#N)c1ccc(F)c(Oc2ccccc2)c1 (stereo unspecified): 1
- CN(C)C(=S)[S-].CN(C)C(=S)[S-].[Zn+2]: 0.699
- CCCCCCCCn1sccc1=O: 0.00935
- ClC1=C(Cl)C2(Cl)C(CBr)CC1(Cl)C2(Cl)Cl (stereo unspecified): 0.973
- CCNc1nc(NCC)nc(SC)n1: 1.04
- CCOP(=S)(OCC)SCn1nnc2ccccc2c1=O: 0.946

###

tested on: Streptococcus salivarius; test: growth AUC relative to DMSO control (median of replicates) (fraction); higher = more growth (less inhibition), active = hit call of the paper; settings: 20 µM; 24 h
OUTCOME MEASURE: growth AUC

- CC(C)=CC1C(C(=O)OCN2C(=O)C3=C(CCCC3)C2=O)C1(C)C (stereo unspecified): 1.01 (inactive)
- O=C1C=CC(=O)C=C1: 0.979 (inactive)
- Nc1cccc(Cl)c1Cl: 1.01 (inactive)
- Nc1ccc(Cl)cc1: 1.01 (inactive)
- CCCSP(=O)(OCC)Oc1ccc(Br)cc1Cl (stereo unspecified): 1.01 (inactive)
- ClCC1C(CCl)C2(Cl)C(Cl)=C(Cl)C1(Cl)C2(Cl)Cl (stereo unspecified): 0.981 (inactive)

The values you see were collected from the supplement of paper PMC12669032.
